This listing pairs molecules with measured melting point.

The cases that follow already have their melting point on record.
1) CCOC(=O)c1cccc(NC(=O)c2ccc(OC)c(N)c2)c1; 144 to 146 °C
2) O=C(NO)[C@H](CNS(=O)(=O)c1ccc(OCc2c(C(F)(F)F)nn3ccccc23)cc1)N1CCN(Cc2ccccc2)CC1; 138 °C
3) O=C1CCCc2cc(O)ccc21; 153 to 155 °C
4) O=C1N=C(c2ccccc2OCC(F)(F)F)N=C2N=CN=C12; 261 to 263 °C
5) O=C1CC(NC(=O)C2CCCN3C(=O)CCC(NC(=O)c4ccccc4)C(=O)N23)C(OC2Cc3ccccc3C2)O1 (configuration not stated); 140 °C
6) Cc1cccc(Cl)c1CC#N; 49 to 51 °C
7) CC(N1C(=O)C(=O)N(c2ccc(Cl)cc2)C1=S)C(C)(C)C (configuration not stated); 199 to 200 °C
8) COc1ncccc1NC(=NC#N)NC(NC(=O)c1cc(F)cc(F)c1)C(C)(Cl)Cl (configuration not stated); 125 to 126 °C
9) C=CCC(O)c1ccc2ccccc2c1 (configuration not stated); 35 to 39 °C
10) COC(=O)C(=CO)c1ccccc1; 33.5 to 35.5 °C

I am curious: what melting point value has been reported for CS(=O)(=O)c1ccc(C2=C(c3ccc(-c4ccsc4)cc3)C(=O)OC2)cc1 ? 220 to 222 °C

I am curious: what melting point value has been reported for CCCn1c(=O)c2[nH]c(/C=C/c3ccc4c(c3)OCCO4)nc2n(CCC)c1=O ? > 275 °C

I am curious: what melting point value has been reported for CC(=O)c1ccc(OCCCCCOc2ccc3c(=O)cc(C(=O)O)oc3c2)cc1O ? 226 to 228 °C

I am curious: what melting point value has been reported for COC(=O)c1ccc(C2NCCc3c2[nH]c2ccccc32)cc1 (configuration not stated) ? 179 °C

I am curious: what melting point value has been reported for COc1ccc(C(N)C2(C(=O)O)C3CC4CC(C3)CC2C4)cc1 (configuration not stated) ? 205 to 213 °C

I am curious: what melting point value has been reported for CNC(=O)N(N=C(C)C)C(=O)c1ccc(Cl)cc1 ? 119 to 123 °C

I am curious: what melting point value has been reported for CN(C(=O)Cl)c1ccccc1C(F)(F)F ? 44 to 46 °C

I am curious: what melting point value has been reported for O=C1N=c2ccccc2=C1C1CCNCC1 ? 156 °C

I am curious: what melting point value has been reported for Cc1c(-c2ccc(O)c(F)c2)sc(C=O)c1-c1ccc(O)cc1 ? 227 to 229 °C
